target: HLA-A*1101 (human); experiment: iTopia affinity;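 also: affinity derived from a titration of eight serial peptide dilutions, each run under the same conditions as the binding screen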
Lab note: compare ED50 with 20 µM, writing t if less and f if equal or more.

Solved cases (5 shown):
{"BINDER": "ADSKASQQK [cdr2 103-111 ADSKASQQK]", "ASSIGNED CATEGORY": "f"}
{"BINDER": "VYDHVFAEK [cdr2 172-180 VYDHVFAEK]", "ASSIGNED CATEGORY": "t"}
{"BINDER": "IFSCIKKTK [cdr2 429-437 IFSCIKKTK]", "ASSIGNED CATEGORY": "t"}
{"BINDER": "TQYSALKVK [cdr2 351-359 TQYSALKVK]", "ASSIGNED CATEGORY": "t"}
{"BINDER": "LTKQVELLR [cdr2 66-74 LTKQVELLR]", "ASSIGNED CATEGORY": "t"}

## Task ED50 strictly < 20 µM for this binder? LQAQLSLER [cdr2 205-213 LQAQLSLER]
## Result t

## Task ED50 strictly < 20 µM for this binder? GATGAYRAR [cdr2 238-246 GATGAYRAR]
## Result t

## Task ED50 strictly < 20 µM for this binder? KVKYEELLK [cdr2 357-365 KVKYEELLK]
## Result t

## Task ED50 strictly < 20 µM for this binder? PDSLYVPFK [cdr2 276-284 PDSLYVPFK]
## Result f

## Task ED50 strictly < 20 µM for this binder? PPEYKALFK [cdr2 419-427 PPEYKALFK]
## Result f

## Task ED50 strictly < 20 µM for this binder? SGWELASVN [cdr2 401-409 SGWELASVN]
## Result f

## Task ED50 strictly < 20 µM for this binder? ESHRKPLKR [cdr2 300-308 ESHRKPLKR]
## Result f

## Task ED50 strictly < 20 µM for this binder? GQGRRSPGK [cdr2 140-148 GQGRRSPGK]
## Result t

## Task ED50 strictly < 20 µM for this binder? QLGATGAYR [cdr2 236-244 QLGATGAYR]
## Result f

## Task ED50 strictly < 20 µM for this binder? RQMNEQHAK [cdr2 74-82 RQMNEQHAK]
## Result t

## Task ED50 strictly < 20 µM for this binder? SLAGSDIVK [cdr2 317-325 SLAGSDIVK]
## Result t

## Task ED50 strictly < 20 µM for this binder? LQSQVEELK [cdr2 129-137 LQSQVEELK]
## Result f

## Task ED50 strictly < 20 µM for this binder? AQLSLERQK [cdr2 207-215 AQLSLERQK]
## Result t
